Assay: chemical genetic growth profiling, strain panel (AID 1159580);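 further: tested at 20 µM; growth read once vehicle control cultures reached saturation at 30 °C; 1 = growth at the plate median or of vehicle wells; lower values mean less growth of the strain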
Conditions: S. cerevisiae deletion strains, growth OD, locus YKL085W, strain MDH1, stronger effect = lower value
Out of some 5,500 compounds screened, about 2,000 (36%) were called active. Roughly 18% stayed inconclusive and do not appear here. The list shows a part of the results.
VALUE TYPE: normalized growth

Prompt line: # get_value(readout='normalized growth', item= COC(=O)C(O)[C@H]1C(C)(C)[C@@H](OC(C)=O)[C@@H]2CC3=C4CC(=O)O[C@@H](c5ccoc5)[C@]4(C)CCC3[C@@]1(C)C2=O (some centres undefined) )
Response line: 0.995 (inactive)

Prompt line: Next entry: CNC(=O)N(C)c1nnc(C(C)(C)C)s1
Response line: 1.02 (inactive)

Prompt line: Next entry: CN1CCC[C@H]1c1cccnc1
Response line: 0.984 (inactive)

Prompt line: Next entry: O=C(O)CCC(=O)OC[C@@H](NC(=O)C(Cl)Cl)[C@H](O)c1ccc([N+](=O)[O-])cc1
Response line: 0.99 (inactive)

Prompt line: Next entry: COC(=O)c1cc(OC)c(=O)c2c(OC)c(OC)ccc2c1
Response line: 0.971 (inactive)

Prompt line: Next entry: C/C(=C\CO)CC[C@H](C)CCC[C@H](C)CCCC(C)C
Response line: 1.07 [resistant] (active)

Prompt line: Next entry: CC(=O)NS(=O)(=O)c1ccc(N)cc1
Response line: 0.982 (inactive)

Prompt line: Next entry: O=C(O)c1cc(O)c2c(c1)C(=O)c1cc(O)cc(O)c1C2=O
Response line: 0.888 (active)

Prompt line: Next entry: CC(C)OC(=O)Nc1cccc(Cl)c1
Response line: 0.991 (inactive)

Prompt line: Next entry: COc1ccc(/C=C/c2cc(O)cc(O[C@@H]3O[C@H](CO)[C@@H](O)[C@H](O)[C@H]3O)c2)cc1
Response line: 0.982 (inactive)

Prompt line: Next entry: COc1cc(Cc2cnc(N)nc2N)cc(OC)c1OC
Response line: 1.03 (inactive)

Prompt line: Next entry: O=C1C(=O)c2ccccc2C(O)=C1C1CCC(c2ccc(Cl)cc2)CC1 (centres undefined)
Response line: 0.989 (inactive)

Prompt line: Next entry: Cc1cc(O)c2c(c1)C(=O)c1cccc(O)c1C2=O
Response line: 1.01 (inactive)

Prompt line: Next entry: O=C(Nc1ccc([N+](=O)[O-])cc1Cl)c1cc(Cl)ccc1O
Response line: 1.04 (inactive)

Prompt line: Next entry: O=C(O)c1cccnc1C(=O)O
Response line: 0.982 (inactive)

Prompt line: Next entry: COc1ccc(NS(=O)(=O)c2ccc(N)cc2)nn1
Response line: 0.999 (inactive)

Prompt line: Next entry: CN1CCCCC1c1ccc(-c2cccnc2)nc1 (centres undefined)
Response line: 1.01 (inactive)

Prompt line: Next entry: CCCC(=O)Nc1ccc(OCC(O)CNC(C)C)c(C(C)=O)c1 (centres undefined)
Response line: 1.01 (inactive)

Prompt line: Next entry: Cc1cc(O)c2c(c1)C(=O)c1cc(O)cc(O)c1C2=O
Response line: 0.795 (active)

====

Assay: chemical genetic growth profiling, strain panel (AID 1159580);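 further: tested at 20 µM; growth read once vehicle control cultures reached saturation at 30 °C; 1 = growth at the plate median or of vehicle wells; lower values mean less growth of the strain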
Details: S. cerevisiae deletion strains, growth OD, locus YDR054C, strain cdc34, stronger effect = lower value
Screen size: about 5,500 compounds; about 2,000 (36%) were called active. Another 18% or so got no clear call; they are omitted. The list shows a part of the results.
Provide the reported normalized growth of each item.
// keep it numeric: no unit symbol after the value

Prompt line: # get_value(readout='normalized growth', item= O=C(Nc1cc(Cl)cc(Cl)c1)c1cc(Br)ccc1O )
Response line: 0.939

Prompt line: Next entry: O=C(Nc1cc(Cl)cc(Cl)c1)c1cc(Cl)ccc1O
Response line: 0.921

Prompt line: Next entry: O=C(/C=C/c1ccc(Cl)cc1)Nc1cccc(Cl)c1
Response line: 0.958

Prompt line: Next entry: NNC(=O)c1oc2nc(-c3ccccc3)cc(-c3ccccc3)c2c1N
Response line: 0.962

Prompt line: Next entry: N#CC(C(=O)Nc1cccc(C(F)(F)F)c1)C(=S)Nc1ccccc1Cl (stereo unspecified)
Response line: 0.98

Prompt line: Next entry: O=C(OCCNc1ccc([N+](=O)[O-])cn1)c1ccc([N+](=O)[O-])o1
Response line: 0.898

Prompt line: Next entry: Cc1cc(Sc2c([N+](=O)[O-])cc(C(F)(F)F)cc2[N+](=O)[O-])c(Cl)cc1Cl
Response line: 0.99

Prompt line: Next entry: N/C(=N/OCc1c(F)cccc1Cl)c1ccc(Cl)cc1
Response line: 0.905

Prompt line: Next entry: O=C(Nc1ccccc1Sc1ccc(C(F)(F)F)cc1[N+](=O)[O-])C(Cl)Cl
Response line: 0.998

Prompt line: Next entry: FC(F)(F)c1ccncc1-c1nc(-c2ccc(Cl)cc2)cs1
Response line: 0.979

Prompt line: Next entry: Cn1cc(Br)c(-c2cccc(NS(=O)(=O)c3ccc(Cl)cc3)c2)n1
Response line: 0.988
